Taken from patent US8119633B2.

Molecular target: human μ-opiate receptor (Homo sapiens, UniProt P35372)
Construct: purchased PerkinElmer Life Sciences, Zaventem, Belgium RB-HOM; host or cells: CHO-K1 cells (membrane preparation)
Sequence (P35372 whole entry): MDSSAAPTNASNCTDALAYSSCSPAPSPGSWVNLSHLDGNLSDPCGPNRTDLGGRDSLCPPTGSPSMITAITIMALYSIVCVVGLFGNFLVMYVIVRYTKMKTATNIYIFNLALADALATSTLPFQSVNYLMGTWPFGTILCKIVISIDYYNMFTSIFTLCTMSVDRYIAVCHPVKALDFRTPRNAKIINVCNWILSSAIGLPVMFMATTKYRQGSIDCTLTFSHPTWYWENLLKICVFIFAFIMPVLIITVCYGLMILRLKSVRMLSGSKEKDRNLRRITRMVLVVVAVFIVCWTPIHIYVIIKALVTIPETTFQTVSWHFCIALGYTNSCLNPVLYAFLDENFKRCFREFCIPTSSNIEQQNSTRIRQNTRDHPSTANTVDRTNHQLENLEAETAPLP
Test: Affinity for the human μ-opiate receptor ([3H]-naloxone displacement, SPA)
Details: test substance 1 μmol/l; inhibition of specific [3H]-naloxone binding; CHO-K1 receptor membrane preparation; read-out: μ-Opioid receptor [1 μM] % inhibition
Description: Studies of the Effectiveness of the Compounds According to the Invention Method for determining the affinity for the human μ-opiate receptor The receptor affinity for the human μ-opiate receptor is determined in a homogeneous batch on microtitre plates. […] When the ninety-minute incubation time has ended, the microtitre plates are centrifuged off for 20 minutes at 1000 g and the radioactivity is measured in a β-counter (Microbeta-Trilux, PerkinElmer Wallac, Freiburg, Germany). […]
Attribute: inhibition at 1 µM
Just the number please, in %, no unit attached.

1. O=C(CC1CCCN1S(=O)(=O)c1ccc(Cl)c(Cl)c1)NC1CCC(C(c2ccccc2)N2CCCC2)CC1 (stereo not drawn) [Example 105] ... 76
2. O=C(CC1C(=O)Nc2ccccc2N1S(=O)(=O)c1ccc(Cl)c(Cl)c1)NCC1CCC(C(CCc2ccccc2)N2CCCC2)CC1 (stereo not drawn) [Example 66] ... 11
3. CN(C)C(c1ccccc1)C1CCC(CNC(=O)CCCCN(C)S(=O)(=O)c2c(Cl)cc(Cl)cc2Cl)CC1 (stereo not drawn) [Example 7] ... 96
4. O=C(CC1C(=O)NCCN1S(=O)(=O)c1ccc(Cl)cc1Cl)NC1CCC(C(c2ccccc2)N2CCCC2)CC1 (stereo not drawn) [Example 102] ... 35

Query: inhibition at 1 µM lookup needed for O=C(CC1CCCN1S(=O)(=O)c1ccc(Cl)c(Cl)c1)NCC1CCC(C(c2ccccc2)N2CCCC2)CC1 (stereo not drawn) [Example 76] , thanks.
Response: 84

Query: inhibition at 1 µM lookup needed for O=C(CC1CCCN1S(=O)(=O)c1ccc(Cl)c(Cl)c1)NC1CCC(C(c2ccccc2)N2CCOCC2)CC1 (stereo not drawn) [Example 104] , thanks.
Response: 11
